Measurement target: STAT6 (Homo sapiens)
Construct: These cells express endogenous STAT6; host or cells: HeLa LgBiT clone 4.14
Protocol text: Stat6 Degrader Assay (HiBiT based, HeLa LgBiT clone 4.14)
Assay type: cell-based
Condition summary: HeLa LgBiT clone 4.14 HiBiT-STAT6, 4-24 h incubation; values given for compounds with >80% Emax; geometric mean; read-out: STAT6 degradation DC50
Method: This was a HiBit based assay. A HeLa cell line stably transfected with a small protein, LgBit (Large Bit) was obtained from Promega. These cells express endogenous STAT6. […] Single cell clones were prepared and the clone 4.14 was selected for the assay based on that clone showing high luminescence, high STAT6 phosphorylation upon stimulation with IL-4, and inhibition of luminescence when cells were treated with STAT6 siRNA. […]
Parameter measured: DC50 (nM)

Examples with their reported DC50 follow.
1. CNc1cc(=O)n(-c2ccnc3c2cc(CN2CC=C(c4c(F)cc(C(=O)N5CCC(CN6CCN(Cc7ccc8c(c7)n(C)c(=O)n8C7CCC(=O)NC7=O)C[C@@H]6C)CC5)cc4F)CC2)n3C)cc1F (some centres unmarked) [Example 3u54]    12
2. CNc1cc(=O)n(-c2ccnc3c2cc(CN2CCC(c4c(F)cc(C(=O)N5CCC(CN6CCN(Cc7ccc8c(c7)C(C)(C)C(=O)N8[C@@H]7CCC(=O)NC7=O)CC6)CC5)cc4F)CC2)n3C)cc1F (single isomer, unassigned) [Example 3u59]    11.4
3. CNc1ccn(-c2ccnc3c2cc([C@H](C)N2CC=C(c4c(C)cc(C(=O)N5CCC(CN6CCN(Cc7ccc8c(c7)C7(CC7)C(=O)N8C7CCC(=O)NC7=O)C[C@@H]6C)CC5)cc4F)CC2)n3C)c(=O)c1F (some centres unmarked) [Example 3u114]    9.9

1 = Cc1cc(C(=O)N2CCC(CN3CCN(Cc4cc5c(cc4F)n(C4CCC(=O)NC4=O)c(=O)n5C4CC4)C[C@@H]3C)CC2)cc(F)c1C1=CCN([C@@H](C)c2cc3c(-n4ccc5c(c4=O)CCN5)ccnc3n2C)CC1 (some centres unmarked) [Example 3u131]
2 = CNc1ccn(-c2ccnc3c2cc([C@H](C)N2CC=C(c4c(C)cc(C(=O)N5CCC(CN6CCN(Cc7ccc8c(c7)n(C7CC7)c(=O)n8C7CCC(=O)NC7=O)CC6)CC5)cc4F)CC2)n3C)c(=O)c1 (some centres unmarked) [Example 3u122]
3 = Cc1cc(C(=O)N2CCC(CN3CCN(Cc4cc5c(cc4F)n([C@@H]4CCC(=O)NC4=O)c(=O)n5C)CC3)CC2)cc(F)c1C1=CCN([C@@H](C)c2cc3c(-n4ccc5c(c4=O)CCN5)ccnc3n2C)CC1 (single isomer, unassigned) [Example 3u76]
4 = CNc1c(F)cn(-c2ccnc3c2cc(CN2CCC(c4c(F)cc(C(=O)N5CCC(CN6CCN(Cc7ccc8c(c7)C7(CC7)C(=O)N8C7CCC(=O)NC7=O)C[C@@H]6C)CC5)cc4F)CC2)n3C)c(=O)c1F (some centres unmarked) [Example 3u115]
Query :: Please give the order of these compounds when sorted by DC50, largest value leading. State the ranking by listing the labels in the requested order.
Result :: 4, 3, 2, 1
(4: 8.3 nM, 3: 3.2 nM, 2: 1.2 nM, 1: 0.8 nM)

====

Measurement target: STAT6 (Homo sapiens, UniProt P42226)
Construct: These cells express endogenous STAT6; host or cells: HeLa LgBiT clone 4.14
Protocol text: Stat6 Degrader Assay (HiBiT based, HeLa LgBiT clone 4.14)
Assay type: cell-based
Condition summary: HeLa LgBiT clone 4.14 HiBiT-STAT6, 4-24 h incubation; values given for compounds with >80% Emax; geometric mean; read-out: STAT6 degradation DC50
Parameter measured: DC50 (nM)

1. CNc1ccn(-c2ccnc3c2cc([C@H](C)N2CCC(c4c(F)cc(C(=O)N5CCC(CN6CCN(Cc7ccc8c(c7)C(C)(C)C(=O)N8[C@@H]7CCC(=O)NC7=O)C[C@@H]6C)CC5)cc4F)CC2)n3C)c(=O)c1 (single isomer, unassigned)    1.1
2. CNc1cc(=O)n(-c2ccnc3c2cc([C@H](C)N2CC=C(c4c(F)cc(C(=O)N5CCC(CN6CCN(Cc7ccc8c(c7)n(C)c(=O)n8[C@@H]7CCC(=O)NC7=O)CC6)CC5)cc4F)CC2)n3C)cc1F (single isomer, unassigned)    8.7

A = CNc1ccn(-c2ccnc3c2cc(CN2CCC(c4c(F)cc(C(=O)N5CCC(CN6CCN(Cc7cc8c(cc7F)N([C@H]7CCC(=O)NC7=O)C(=O)C87CC7)CC6)CC5)cc4F)CC2)n3C)c(=O)c1 (single isomer, unassigned)
B = C[C@H]1CN(Cc2ccc3c(c2)n(C2CC2)c(=O)n3[C@@H]2CCC(=O)NC2=O)CCN1CC1CCN(C(=O)c2cc(F)c(C3CCN(Cc4cc5c(-n6ccc7c(c6=O)CCN7)ccnc5n4C)CC3)c(F)c2)CC1 (single isomer, unassigned)
C = CNc1cc(=O)n(-c2ccnc3c2cc([C@H](C)N2CC=C(c4c(C)cc(C(=O)N5CCC(CN6CCN(c7ccc8c(c7)C7(CC7)C(=O)N8[C@@H]7CCC(=O)NC7=O)CC6)CC5)cc4F)CC2)n3C)cc1F (single isomer, unassigned)
Query :: Please give the order of these compounds when sorted by DC50, largest value leading. State the ranking by listing the labels in the requested order.
Result :: A, C, B
(A: 8.5 nM, C: 5.1 nM, B: 3.4 nM)

====

Measurement target: STAT6 (Homo sapiens, UniProt P42226)
Construct: These cells express endogenous STAT6; host or cells: HeLa LgBiT clone 4.14
Protocol text: Stat6 Degrader Assay (HiBiT based, HeLa LgBiT clone 4.14)
Assay type: cell-based
Condition summary: HeLa LgBiT clone 4.14 HiBiT-STAT6, 4-24 h incubation; values given for compounds with >80% Emax; geometric mean; read-out: STAT6 degradation DC50
Description: This was a HiBit based assay. A HeLa cell line stably transfected with a small protein, LgBit (Large Bit) was obtained from Promega. These cells express endogenous STAT6. […] Single cell clones were prepared and the clone 4.14 was selected for the assay based on that clone showing high luminescence, high STAT6 phosphorylation upon stimulation with IL-4, and inhibition of luminescence when cells were treated with STAT6 siRNA. […]
Parameter measured: DC50 (nM)

1. CNc1cc(=O)n(-c2ccnc3c2cc([C@H](C)N2CC=C(c4c(F)cc(C(=O)N5CCC(CN6CCN(Cc7ccc8c(c7)C(C)(C)C(=O)N8C7CCC(=O)NC7=O)C[C@@H]6C)CC5)cc4F)CC2)n3C)cc1F (stereo partly shown)    3.8

I = CNc1cc(=O)n(-c2ccnc3c2cc(CN2CCC(c4c(F)cc(C(=O)N5CCC(CN6CCN(Cc7ccc8c(c7)n(C)c(=O)n8C7CCC(=O)NC7=O)CC6)CC5)cc4F)CC2)n3C)cc1F (stereo not shown)
II = CNc1ccn(-c2ccnc3c2cc(CN2CCC(c4c(F)cc(C(=O)N5CCC(CN6CCN(Cc7ccc8c(c7)C7(CC7)C(=O)N8[C@H]7CCC(=O)NC7=O)C[C@@H]6C)CC5)cc4F)CC2)n3C)c(=O)c1 (single isomer, unassigned)
III = CNc1ccn(-c2ccnc3c2cc(CN2CCC(c4c(F)cc(C(=O)N(C)c5ccc(C6CCN(Cc7ccc8c(c7)n(C)c(=O)n8C7CCC(=O)NC7=O)CC6)cc5)cc4F)CC2)n3C)c(=O)c1 (stereo not shown)
Query :: Please give the order of these compounds when sorted by DC50, largest value leading. State the ranking by listing the labels in the requested order.
Result :: I, II, III

====

Measurement target: STAT6 (Homo sapiens, UniProt P42226)
Construct: These cells express endogenous STAT6; host or cells: HeLa LgBiT clone 4.14
Sequence (P42226 1-847): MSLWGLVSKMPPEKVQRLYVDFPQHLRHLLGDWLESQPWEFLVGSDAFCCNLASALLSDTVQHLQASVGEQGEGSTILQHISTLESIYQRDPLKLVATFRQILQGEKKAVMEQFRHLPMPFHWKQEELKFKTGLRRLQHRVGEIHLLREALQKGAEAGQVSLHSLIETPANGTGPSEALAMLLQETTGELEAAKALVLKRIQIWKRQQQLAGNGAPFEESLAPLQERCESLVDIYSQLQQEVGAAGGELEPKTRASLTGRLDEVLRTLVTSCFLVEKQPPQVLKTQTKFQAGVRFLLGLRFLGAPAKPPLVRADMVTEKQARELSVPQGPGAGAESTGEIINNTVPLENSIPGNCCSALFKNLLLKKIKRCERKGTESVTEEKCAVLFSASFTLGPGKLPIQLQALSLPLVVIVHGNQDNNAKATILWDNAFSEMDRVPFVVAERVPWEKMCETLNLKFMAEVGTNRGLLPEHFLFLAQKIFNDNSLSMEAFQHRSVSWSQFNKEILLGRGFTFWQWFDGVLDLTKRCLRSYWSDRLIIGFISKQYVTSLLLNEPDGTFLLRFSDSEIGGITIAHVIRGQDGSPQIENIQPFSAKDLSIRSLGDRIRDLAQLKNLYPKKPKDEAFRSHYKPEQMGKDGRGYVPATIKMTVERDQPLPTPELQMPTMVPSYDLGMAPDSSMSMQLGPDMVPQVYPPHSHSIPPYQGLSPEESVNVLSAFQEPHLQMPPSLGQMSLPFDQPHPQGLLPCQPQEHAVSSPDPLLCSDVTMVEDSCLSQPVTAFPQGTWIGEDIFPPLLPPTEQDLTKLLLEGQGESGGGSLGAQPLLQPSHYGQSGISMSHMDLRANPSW
Protocol text: Stat6 Degrader Assay (HiBiT based, HeLa LgBiT clone 4.14)
Assay type: cell-based
Condition summary: HeLa LgBiT clone 4.14 HiBiT-STAT6, 4-24 h incubation; values given for compounds with >80% Emax; geometric mean; read-out: STAT6 degradation DC50
Parameter measured: DC50 (nM)

a = CNc1cc(=O)n(-c2ccnc3c2cc(CN2CCC(c4c(F)cc(C(=O)N5CCC(CN6CCN(Cc7cc8c(cc7F)N([C@@H]7CCC(=O)NC7=O)C(=O)C87CC7)CC6)CC5)cc4F)CC2)n3C)cc1F (single isomer, unassigned)
b = CNc1cc(=O)n(-c2ccnc3c2cc([C@H](C)N2CC=C(c4c(C)cc(C(=O)N5CCC(CN6CCN(c7ccc8c(c7)C(C)(C)C(=O)N8[C@@H]7CCC(=O)NC7=O)CC6)CC5)cc4F)CC2)n3C)cc1F (single isomer, unassigned)
c = CNc1cc(=O)n(-c2ccnc3c2cc(CN2CCC(c4c(F)cc(C(=O)N5CCC(CN6CCN(Cc7ccc8c(c7)C7(CC7)C(=O)N8[C@H]7CCC(=O)NC7=O)C[C@@H]6C)CC5)cc4F)CC2)n3C)cc1F (single isomer, unassigned)
Query :: Rank the listed compounds according to DC50, from the largest value downward. State the ranking by listing the labels in the requested order.
Result :: a, b, c
(a: 18.6 nM, b: 12.5 nM, c: 1.3 nM)
